# experimental system: H-2 K^d (Mus musculus, UniProt P01902)
# Sequence (P01887 21-119): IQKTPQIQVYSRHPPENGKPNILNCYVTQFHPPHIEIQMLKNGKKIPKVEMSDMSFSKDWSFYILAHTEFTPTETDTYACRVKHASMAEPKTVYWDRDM
# Sequence (P01902 22-368): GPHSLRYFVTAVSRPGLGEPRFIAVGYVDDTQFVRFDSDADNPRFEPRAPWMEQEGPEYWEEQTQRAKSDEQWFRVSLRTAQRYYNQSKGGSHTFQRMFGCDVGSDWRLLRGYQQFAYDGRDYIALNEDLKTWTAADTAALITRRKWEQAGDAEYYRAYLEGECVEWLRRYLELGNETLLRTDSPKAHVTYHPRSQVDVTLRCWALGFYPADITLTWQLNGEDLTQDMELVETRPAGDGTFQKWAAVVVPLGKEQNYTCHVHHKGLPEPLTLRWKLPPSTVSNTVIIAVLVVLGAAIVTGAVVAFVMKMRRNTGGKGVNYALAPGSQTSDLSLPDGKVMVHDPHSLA
# Format: binding
recorded endpoint: Normalized average relative binding affinity(ARB)
# respond with the number and nothing more

Examples from the recorded data:
{"columns": ["sequence", "readout number"],
 "data": [
  ["XXXXXXKXX [3064.0129]", 0.023],
  ["XXXXXXNXX [3064.0132]", 0.61],
  ["XXXXXXQXX [3064.0134]", 0.25],
  ["XXXNXXXXX [3064.0072]", 0.24],
  ["XXXXXXXMX [3064.0151]", 0.43],
  ["XXXRXXXXX [3064.0075]", 0.20],
  ["XXXYXXXXX [3064.0080]", 0.14],
  ["XXXXWXXXX [3064.0099]", 0.21],
  ["XXXXXTXXX [3064.0117]", 0.26],
  ["XXXXCXXXX [3064.0082]", 0.19]
]}

Normalized average relative binding affinity(ARB) for XXXXXLXXX [3064.0110] ?
0.34

Normalized average relative binding affinity(ARB) for XXXXXCXXX [3064.0102] ?
0.26

Normalized average relative binding affinity(ARB) for XXXXXVXXX [3064.0118] ?
0.32

Normalized average relative binding affinity(ARB) for XXXQXXXXX [3064.0074] ?
0.42

Normalized average relative binding affinity(ARB) for XXXSXXXXX [3064.0076] ?
0.28

Normalized average relative binding affinity(ARB) for XXXXXAXXX [3064.0101] ?
0.26

Normalized average relative binding affinity(ARB) for XXXXDXXXX [3064.0083] ?
0.15

Normalized average relative binding affinity(ARB) for XXXXTXXXX [3064.0097] ?
0.42

Normalized average relative binding affinity(ARB) for XXXXKXXXX [3064.0089] ?
0.011

====

# experimental system: HLA B*0801 (Homo sapiens, UniProt P01889, A93T/A95T/D138N/E176V/E187T/K202T/Q94N/R180D/S35A/V36M/Y33D/Y91F)
# assay comment: biochemical
Where a SMILES comes first, the peptide text is derived from it.
Listed molecules paired with reported pIC50
When answering, recall that pIC50 equals minus log10 of the concentration in mol/L, and write that number alone.

Examples from the recorded data:
{"columns": ["molecule", "pIC50"],
 "data": [
  ["CSCC[C@H](NC(=O)[C@H](Cc1ccccc1)NC(=O)CN)C(=O)N[C@@H](CCCNC(=N)N)C(=O)N[C@@H](Cc1ccccc1)C(=O)N[C@@H](Cc1ccccc1)C(=O)N[C@@H](CCC(N)=O)C(=O)N[C@@H](CC(C)C)C(=O)N[C@@H](CC(C)C)C(=O)O [3102.0728] (H-GFMRFFQLL-OH)", 8.62],
  ["CC(C)C[C@H](NC(=O)[C@@H](NC(=O)[C@H](CCCCN)NC(=O)[C@H](Cc1ccccc1)NC(=O)[C@H](CCCCN)NC(=O)[C@@H](NC(=O)[C@H](CC(N)=O)NC(=O)[C@H](CC(C)C)NC(=O)[C@@H](N)CO)[C@@H](C)O)[C@@H](C)O)C(=O)O [3102.0746] (H-SLNTKFKTL-OH)", 8.06],
  ["CC[C@H](C)[C@H](NC(=O)[C@H](C)N)C(=O)N[C@@H](CC(N)=O)C(=O)N[C@@H](CC(N)=O)C(=O)N[C@@H](CCCNC(=N)N)C(=O)N[C@H](C(=O)N[C@@H](CS)C(=O)N[C@H](C(=O)N[C@@H](CCSC)C(=O)O)C(C)C)[C@@H](C)CC [3102.0865] (H-AINNRICVM-OH)", 6.37],
  ["CC(C)C[C@H](NC(=O)[C@H](CS)NC(=O)[C@H](CCC(=O)O)NC(=O)[C@H](CCCCN)NC(=O)[C@H](Cc1c[nH]cn1)NC(=O)[C@H](CC(C)C)NC(=O)[C@H](CCCNC(=N)N)NC(=O)[C@H](CC(N)=O)NC(=O)[C@@H](N)CCC(=O)O)C(=O)O [3102.0562] (H-ENRLHKECL-OH)", 7.14],
  ["CC[C@H](C)[C@H](NC(=O)[C@@H](N)Cc1ccccc1)C(=O)N[C@@H](CCCCN)C(=O)N[C@@H](CCC(N)=O)C(=O)NCC(=O)N[C@@H](Cc1ccccc1)C(=O)N[C@@H](CC(N)=O)C(=O)N[C@@H](CC(N)=O)C(=O)N[C@@H](CC(C)C)C(=O)O [3102.0781] (H-FIKQGFNNL-OH)", 9.04],
  ["CC(C)C[C@H](NC(=O)[C@@H](NC(=O)[C@@H](NC(=O)[C@H](CC(N)=O)NC(=O)[C@H](Cc1ccccc1)NC(=O)[C@H](CC(C)C)NC(=O)[C@H](CCCCN)NC(=O)[C@H](CC(C)C)NC(=O)[C@@H](N)CCC(=O)O)C(C)C)[C@@H](C)O)C(=O)O [3102.0729] (H-ELKLFNVTL-OH)", 8.33],
  ["CC(C)C[C@H](NC(=O)[C@H](Cc1ccccc1)NC(=O)[C@H](Cc1ccc(O)cc1)NC(=O)[C@H](CC(C)C)NC(=O)[C@H](CCCNC(=N)N)NC(=O)[C@H](CCC(N)=O)NC(=O)[C@H](CC(C)C)NC(=O)[C@H](Cc1ccccc1)NC(=O)[C@@H](N)Cc1ccccc1)C(=O)O [3102.0589] (H-FFLQRLYFL-OH)", 8.17],
  ["CC[C@H](C)[C@H](NC(=O)[C@@H](NC(=O)[C@H](CC(C)C)NC(=O)CNC(=O)[C@H](C)NC(=O)[C@H](Cc1ccc(O)cc1)NC(=O)[C@H](CCCCN)NC(=O)[C@H](CC(C)C)NC(=O)[C@@H](N)CC(C)C)[C@@H](C)O)C(=O)O [3102.1023] (H-LLKYAGLTI-OH)", 6.98]
]}

pIC50 for CSCC[C@H](NC(=O)[C@H](CCC(N)=O)NC(=O)[C@H](CCCCN)NC(=O)[C@@H](NC(=O)[C@H](CCC(N)=O)NC(=O)[C@@H]1CCCN1C(=O)[C@@H](N)CC(N)=O)[C@@H](C)O)C(=O)N[C@@H](C)C(=O)N[C@@H](Cc1ccccc1)C(=O)O [3102.0698] (H-NPQTKQMAF-OH) ?
7.85

pIC50 for CC(C)[C@H](NC(=O)[C@H](Cc1ccc(O)cc1)NC(=O)[C@H](CCCNC(=N)N)NC(=O)[C@H](Cc1ccccc1)NC(=O)[C@H](CS)NC(=O)[C@H](CCCCN)NC(=O)[C@H](Cc1ccccc1)NC(=O)[C@@H](N)Cc1ccccc1)C(=O)N[C@@H](Cc1ccccc1)C(=O)O [3102.0760] (H-FFKCFRYVF-OH) ?
7.96

pIC50 for CC(C)C[C@H](NC(=O)[C@H](CO)NC(=O)[C@H](Cc1ccccc1)NC(=O)[C@@H]1CCCN1C(=O)[C@H](CCCNC(=N)N)NC(=O)[C@H](CCCNC(=N)N)NC(=O)[C@H](CC(C)C)NC(=O)[C@H](CC(C)C)NC(=O)[C@@H](N)CCCCN)C(=O)O [3102.0529] (H-KLLRRPFSL-OH) ?
9.44

pIC50 for CSCC[C@H](N)C(=O)N[C@@H](CCCNC(=N)N)C(=O)N[C@@H](Cc1ccccc1)C(=O)N[C@@H](CCCCN)C(=O)N[C@@H](CCCCN)C(=O)N[C@@H](CCC(=O)O)C(=O)N[C@@H](CO)C(=O)N[C@@H](CO)C(=O)N[C@@H](CC(C)C)C(=O)O [3102.0545] (H-MRFKKESSL-OH) ?
8.47

pIC50 for CC[C@H](C)[C@H](NC(=O)[C@@H](N)CC(C)C)C(=O)N[C@@H](CCCNC(=N)N)C(=O)N[C@@H](CC(N)=O)C(=O)N[C@@H](CCCCN)C(=O)N[C@@H](CCCNC(=N)N)C(=O)N[C@@H](CC(C)C)C(=O)N[C@@H](CO)C(=O)N[C@@H](CC(C)C)C(=O)O [3102.0638] (H-LIRNKRLSL-OH) ?
9.11

====

# experimental system: HLA B*0801 (Homo sapiens, UniProt P01889, A93T/A95T/D138N/E176V/E187T/K202T/Q94N/R180D/S35A/V36M/Y33D/Y91F)
# assay comment: biochemical
Where a SMILES comes first, the peptide text is derived from it.
recorded endpoint: pIC50
When answering, recall that pIC50 equals minus log10 of the concentration in mol/L, and write that number alone.

{"columns": ["compound", "readout number"],
 "data": [
  ["CC[C@H](C)[C@H](NC(=O)[C@@H](N)CO)C(=O)N[C@@H](CCCCN)C(=O)N[C@@H](CO)C(=O)N[C@@H](CCCCN)C(=O)N[C@@H](CO)C(=O)N[C@@H](CCCNC(=N)N)C(=O)N[C@@H](CCCNC(=N)N)C(=O)N[C@@H](CC(C)C)C(=O)O [3102.0534] (H-SIKSKSRRL-OH)", 7.52]
]}

Next:
pIC50 for CSCC[C@H](NC(=O)[C@@H]1CCCN1C(=O)[C@@H](N)CC(C)C)C(=O)N[C@@H](CC(C)C)C(=O)N[C@@H](Cc1ccc(O)cc1)C(=O)N[C@@H](Cc1ccccc1)C(=O)N[C@@H](CC(C)C)C(=O)N[C@@H](Cc1ccc(O)cc1)C(=O)N[C@H](C(=O)O)C(C)C [3102.0703] (H-LPMLYFLYV-OH) ?
8.60
